system_name: COX-1 enzyme (ovine) (Ovis aries, UniProt P05979)
Sequence (P05979 25-600): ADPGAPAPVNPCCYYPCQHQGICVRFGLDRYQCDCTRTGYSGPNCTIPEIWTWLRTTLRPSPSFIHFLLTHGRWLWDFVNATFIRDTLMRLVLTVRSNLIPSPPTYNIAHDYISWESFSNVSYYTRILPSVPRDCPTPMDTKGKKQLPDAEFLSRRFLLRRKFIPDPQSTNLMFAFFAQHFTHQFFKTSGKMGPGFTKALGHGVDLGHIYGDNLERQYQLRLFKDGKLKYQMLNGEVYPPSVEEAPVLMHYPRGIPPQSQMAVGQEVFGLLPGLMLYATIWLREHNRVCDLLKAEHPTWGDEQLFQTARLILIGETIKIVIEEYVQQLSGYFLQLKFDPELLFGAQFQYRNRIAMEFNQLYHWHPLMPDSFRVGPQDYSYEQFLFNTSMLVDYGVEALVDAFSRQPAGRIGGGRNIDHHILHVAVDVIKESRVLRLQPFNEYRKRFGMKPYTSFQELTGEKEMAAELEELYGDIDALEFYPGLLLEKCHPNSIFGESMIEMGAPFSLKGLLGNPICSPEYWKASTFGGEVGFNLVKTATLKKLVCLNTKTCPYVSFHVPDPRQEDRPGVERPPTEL
reported_metric: IC50
Please state the number and follow it with the unit.

Any idea what IC50 was measured for COc1cc(/C=C/C(=O)CC(=O)/C=C/c2ccc(O)c(OC)c2)ccc1O [curcumin] ? 27.1 µM
